Value source: patent US6737429B2

Molecular target: HIV-1 RT (Human immunodeficiency virus type 1 group M subtype B, UniProt P04585)
Experiment: HIV-1 Reverse Transcriptase Assay: Inhibitor IC50 Determination
Assay type: biochemical
Details: purified recombinant enzyme, poly(rA)/oligo(dT)16 template-primer, 37° C. 30 min
Output Fulfilled for records whose IC50 is lower than 300 nM, Not fulfilled for records at or above 300 nM.

1. COCc1c(C(C)C)c(Sc2cc(Cl)cc(Cl)c2)n(Cc2ccncc2)c1C : Not fulfilled
2. Cc1c(CO)c(C(C)C)c(Sc2cccc(Cl)c2)n1Cc1cscn1 : Not fulfilled
3. Cc1c(CO)c(C(C)C)c(Sc2cc(Cl)cc(Cl)c2)n1Cc1cccnc1 : Fulfilled
4. Cc1c(CN=[N+]=[N-])c(C(C)C)c(Sc2cc(Cl)cc(Cl)c2)n1Cc1ccncc1 : Fulfilled
5. CCc1c(CO)c(C(C)C)c(Sc2cc(Cl)cc(Cl)c2)n1Cc1ccncc1 : Fulfilled
6. Cc1c(C#N)c(-c2ccccc2)c(Sc2cc(Cl)cc(Cl)c2)n1Cc1ccncc1 : Not fulfilled
7. CC(=O)NCc1c(C(C)C)c(Sc2cc(Cl)cc(Cl)c2)n(Cc2ccncc2)c1C : Fulfilled
8. Cc1c(CO)c(C(C)C)c(Sc2ccc(F)cc2Cl)n1Cc1ccncc1 : Not fulfilled
9. CC(=O)/C=C/c1cc(C(C)C)c(Sc2cc(Cl)cc(Cl)c2)n1Cc1ccncc1 : Not fulfilled
10. Cc1c(CO)c(C)n(Cc2ccncc2)c1Sc1cc(Cl)cc(Cl)c1 : Fulfilled
11. Cc1c(C(C)C)c(Sc2cc(Cl)cc(Cl)c2)n(Cc2ccncc2)c1C : Fulfilled
12. Cc1c(CNC(=O)c2ccccc2)c(C(C)C)c(Sc2cc(Cl)cc(Cl)c2)n1Cc1ccncc1 : Fulfilled
13. Cc1c(CO)c(C(C)C)c(Sc2ccccc2)n1Cc1ccncc1 : Fulfilled
14. Cc1c(CO)c(C(C)C)c(Sc2cc(Cl)ccc2Cl)n1Cc1ccncc1 : Fulfilled
15. CC(C)c1cc(CO)n(Cc2ccncc2)c1Sc1cc(Cl)cc(Cl)c1 : Fulfilled
16. CC(C)c1c(CO)c(C(C)C)n(Cc2ccncc2)c1Sc1cccc(Cl)c1 : Fulfilled
17. Cc1c(CO)c(C(C)C)c(Sc2cc(Cl)cc(Cl)c2)n1C : Not fulfilled
18. Cc1cc(C(C)C)c(Sc2cc(Cl)cc(Cl)c2)n1Cc1ccncc1 : Fulfilled
19. COC(=O)NCc1c(C(C)C)c(Sc2cc(Cl)cc(Cl)c2)n(Cc2ccncc2)c1C : Fulfilled
20. Cc1c(CO)c(-c2ccccc2)c(Sc2cc(Cl)cc(Cl)c2)n1Cc1ccncc1 : Not fulfilled
21. Cc1c(C(N)=O)c(C(C)C)c(Sc2cc(Cl)cc(Cl)c2)n1Cc1ccncc1 : Fulfilled
22. CC(C)c1c(CO)c(CO)n(Cc2ccncc2)c1Sc1cc(Cl)cc(Cl)c1 : Fulfilled
23. CC(C)c1cc(COC(N)=O)n(Cc2ccncc2)c1Sc1cc(Cl)cc(Cl)c1 : Fulfilled
